The reported measurements were obtained from patent US20180009877A1.

System Tested: polypeptide HER2/ECD (human, UniProt P04626 23-646)
Experiment: SPR (BIAcore), HER2/ECD immobilized, IgG in flow
Property: kon (M⁻¹ s⁻¹)
# output: bare number, implied unit M⁻¹ s⁻¹

Req: Look at this binder and give its reported kon. H32 (antibody, also called antibody H32) DIQMTQSPSSLSASVGDRVTITCKASQNVGTAVAWYQQKPGKAPKLLIYSASNRYTGVPSRFSGSGSGTDFTLTISSLQPEDFATYYCQQYSSYPLAFGQGTKVEIKRGGGGSIEGRSGGGGSEVQLVESGGGLVQPGGSLRLSCKASGFNIKDYFMYWVRQAPGKGLEWVGWIDPENGNTIYDPKFQGRFTISADTSKNTAYLQMNSLRAEDTAVYYCTRGYYGSRVLAMDYWGQGTLVTVSSASAAA
Resp: 159000

Req: Quick one: kon for M41 (antibody, also called antibody M41) MAELDIQMTQTTSSLSASLGDRVTISCRTSQDISNYLNWYQQKPNGTIKLLIYYTSGLYSGVPSRFSGSGSGADYSLTISNVEQEDIATYFCQQVNTLPYTFGGGTKLELKSSGGGGSGGGGGGSSRSSFEVQLQQSGAELVKPGASVKMSCKAFGYTFTTYPIEWMKQNHGKSLEWIGNFHPYNDYTNYNEKFKGKAKLTVEKSSTTVYLELSRLTSDDSAVYYCARRHDGYYGAMDYWGQGTSVTVSSAKTTAPSVTSAAAGAPVPYPDPLEPRAA ?
Resp: 671000

Req: Requested read-out: kon. Entry: M61 (antibody) MAELDIKITQSPASLSASVGETVTITCRASENIYSYLAWYQQKQGKSPQLLVYNAKTLAEGVPSRFSGSGSGTQFSLKINSLQPEDFGSYYCQHHYGTPYTFGGGTKLELKSSGGGGSGGGGGGSSRSSLEVQLQQSGAELVKPGASVKMSCKAFGYTFTTYPIEWMKQNHGKSLEWIGNFHPYNDDTKYNEKFKGKAKLTVEKSSSTVYLELSRLTSDDSAVYYCARRNDGYYGAMDYWGQGTSVTVSSAKTTAPSVTSAAAGAPVPYPDPLEPRAA
Resp: 4.06e+06

Req: kon lookup needed for M32 (antibody, also called antibody M32) MAELGIELTQSQKFMSTSVGDRVSITCKASQNVGTAVAWYQQKPGQSPKLLIYSASNRYTGVPDRFTGSGSGTDFTLTISNMQSEDLADYFCQQYSSYPLAFGGGTKLEIKSSGGGGSGGGGGGSSRSSLEVQLVESGAELVRPGALVKLSCKASGFNIKDYFMYWVKQRPEQGLEWVGWIDPENGNTIYDPKFQGKASITADTSSNTAYLQLSSLTSEDTAVYYCTRGYYGSRVLAMDYWGQGTSVTVSSAKTTPPSVTSAAA , thanks.
Resp: 294000
